experiment: Cytotoxicity against human Jurkat cells assessed as reduction in cell viability incubated for 24 hrs by MTS assay
Format: cell-based
cond: read-out: LC50
Non-standard residues stand in square brackets, D forms with d. Residues, ends and D or L forms follow the SMILES beside them. Nspe = C[C@H](NCC(=O)O)c1ccccc1; Nlys = NCCCCNCC(=O)O
Threshold 5 µM. CC50 at 24 h below it: Satisfied. CC50 at 24 h at it or above: Not satisfied.

compound: C[C@@H](c1ccc(Cl)cc1)N(CC(N)=O)C(=O)CN(C(=O)CN(CCCCN)C(=O)CN(C(=O)CN(C(=O)CN(CCCCN)C(=O)CN(C(=O)CN(C(=O)CN(CCCCN)C(=O)CN(C(=O)CN(C(=O)CNCCCCN)[C@@H](C)c1ccc(Cl)cc1)[C@@H](C)c1ccc(Cl)cc1)[C@@H](C)c1ccc(Cl)cc1)[C@@H](C)c1ccc(Cl)cc1)[C@@H](C)c1ccc(Cl)cc1)[C@@H](C)c1ccc(Cl)cc1)[C@@H](C)c1ccc(Cl)cc1
label: Satisfied
//
compound: C[C@H](c1ccccc1)N(CC(N)=O)C(=O)CN(C(=O)CN(CCCCN)C(=O)CN(C(=O)CN(C(=O)CN(CCCCN)C(=O)CN(C(=O)CN(C(=O)CNCCCCN)[C@H](C)c1ccccc1)[C@@H](C)c1ccccc1)[C@H](C)c1ccccc1)[C@@H](C)c1ccccc1)[C@H](C)c1ccccc1 (stereo in doubt)
label: Not satisfied
//
compound: C[C@@H](c1ccccc1)N(CC(N)=O)C(=O)CN(C(=O)CN(CCCCN)C(=O)CN(C(=O)CN(C(=O)CN(CCCCN)C(=O)CN(C(=O)CN(C(=O)CN(CCCCN)C(=O)CN(C(=O)CN(C(=O)CNCCCCN)[C@@H](C)c1ccccc1)[C@@H](C)c1ccccc1)[C@@H](C)c1ccccc1)[C@@H](C)c1ccccc1)[C@@H](C)c1ccccc1)[C@@H](C)c1ccccc1)[C@@H](C)c1ccccc1 (H-[Nlys][Nspe][Nspe][Nlys][Nspe][Nspe][Nlys][Nspe][Nspe][Nlys][Nspe][Nspe]-NH2)
label: Satisfied
//
compound: C[C@@H](c1ccc(F)cc1)N(CC(N)=O)C(=O)CN(C(=O)CN(CCCCN)C(=O)CN(C(=O)CN(C(=O)CN(CCCCN)C(=O)CN(C(=O)CN(C(=O)CN(CCCCN)C(=O)CN(C(=O)CN(C(=O)CNCCCCN)[C@@H](C)c1ccc(F)cc1)[C@@H](C)c1ccc(F)cc1)[C@@H](C)c1ccc(F)cc1)[C@@H](C)c1ccc(F)cc1)[C@@H](C)c1ccc(F)cc1)[C@@H](C)c1ccc(F)cc1)[C@@H](C)c1ccc(F)cc1
label: Satisfied
//
compound: C[C@@H](c1ccccc1)N(CC(=O)N(CCCCN)CC(=O)N(CC(=O)N(CC(=O)N(CCCCN)CC(=O)N(CC(=O)N(CC(=O)N(CCCCN)CC(N)=O)[C@@H](C)c1ccccc1)[C@@H](C)c1ccccc1)[C@@H](C)c1ccccc1)[C@@H](C)c1ccccc1)C(=O)CN(C(=O)CNCCCCN)[C@@H](C)c1ccccc1 (H-[Nlys][Nspe][Nspe][Nlys][Nspe][Nspe][Nlys][Nspe][Nspe][Nlys]-NH2)
label: Not satisfied
